pKi: −log10 of the molar value.
Entries below carry reported pKi on Carbonic anhydrase 9 (Homo sapiens).
reported property: pKi

[
  {
    "structure as smiles": "O=C(O)CNC(=O)c1ccc(NC(=O)Nc2cc3cc(Br)ccc3o2)cc1",
    "pKi": 4.72
  },
  {
    "structure as smiles": "Cc1c(NC(=O)Nc2ccc(C(=O)O)cc2)oc2ccccc12",
    "pKi": 5.29
  }
]

I: O=C(Nc1ccc(C(=O)O)cc1)Nc1cc2cc(Br)ccc2o1
II: Cc1c(NC(=O)Nc2ccc(C(=O)NCC(=O)O)cc2)oc2ccccc12
Query block: Between I and II , which one shows the larger pKi value? When you have decided, please share the label of that item.
Result block: I

###

- System: MCF7
- protocol: Antiproliferative activity against human MCF7 cells assessed as reduction in cell viability incubated for 48 hrs by SRB assay
- Type: functional, cell-based
- condition parameters: MCF7, 48 h
reported property: pIC50
# pIC50: negative log10 of molar concentration; output just the value

// recorded pIC50 for COc1cccc2c1C(=O)c1c(O)c3c(c(O)c1C2=O)C[C@@](O)(C(=O)CO)C[C@@H]3O[C@H]1C[C@H](N)[C@H](O)[C@H](C)O1 : 5.84

###

- target desc: Carbonic anhydrase 2 (Homo sapiens)
- protocol: Inhibition of recombinant human carbonic anhydrase 2 preincubated with enzyme for 15 mins by phenol red dye based stopped flow CO2 hydration assay
pKi: −log10 of the molar value.
reported property: pKi

# count of solved cases: 4
[
  {
    "structure as smiles": "O=C(Nc1ccc(C(=O)O)cc1)Nc1cc2cc(Br)ccc2o1",
    "pKi": 5.14
  },
  {
    "structure as smiles": "O=C(Nc1cc2cc(Br)ccc2o1)Nc1ccccc1C(=O)O",
    "pKi": 5.39
  },
  {
    "structure as smiles": "Cc1c(NC(=O)Nc2ccc(C(=O)NCC(=O)O)cc2)oc2ccccc12",
    "pKi": 4.59
  },
  {
    "structure as smiles": "Cc1c(NC(=O)Nc2ccccc2C(=O)O)oc2ccccc12",
    "pKi": 5.10
  }
]

1: Cc1c(NC(=O)Nc2ccc(C(=O)O)cc2)oc2ccccc12
2: O=C(Nc1cccc(C(=O)O)c1)Nc1cc2cc(Br)ccc2o1
3: Cc1c(NC(=O)Nc2cccc(C(=O)O)c2)oc2ccccc12
4: O=C(O)CNC(=O)c1ccc(NC(=O)Nc2cc3cc(Br)ccc3o2)cc1
Query block: Order the records so the highest pKi appears first and the lowest last. I would appreciate it if you listed the labels in the requested order.
Result block: 1, 3, 2, 4
(1: 5.51, 3: 5.00, 2: 4.43, 4: 4.17)

###

- Species: Homo sapiens
- protocol: Selectivity index, ratio of Ki for recombinant human carbonic anhydrase 2 preincubated with enzyme for 15 mins by phenol red dye based stopped flow CO2 hydration assay to Ki for recombinant human carbonic anhydrase 12 preincubated with enzyme for 15 mins by phenol red dye based stopped flow CO2 hydration assay
reported property: Ratio Ki

Some compounds with known Ratio Ki results, for comparison:
[
  {
    "structure as smiles": "Cc1c(NC(=O)Nc2ccccc2C(=O)O)oc2ccccc12",
    "Ratio Ki": 2
  },
  {
    "structure as smiles": "Cc1c(NC(=O)Nc2ccc(C(=O)NCC(=O)O)cc2)oc2ccccc12",
    "Ratio Ki": 10
  }
]

A: Cc1c(NC(=O)Nc2ccc(C(=O)O)cc2)oc2ccccc12
B: O=C(O)CNC(=O)c1ccc(NC(=O)Nc2cc3cc(Br)ccc3o2)cc1
Query block: Rank A against B by their Ratio Ki values and give the higher one. Identify your selection by its label.
Result block: B
(B: 7, A: 4)

Attribution: ChEMBL document CHEMBL4613318
